assayedSystem: E. coli Topoisomerase IV (Escherichia coli, UniProt P0AFI2+P20083)
Construct: purchased Inspiralis, UK
Sequence (P20083 whole entry): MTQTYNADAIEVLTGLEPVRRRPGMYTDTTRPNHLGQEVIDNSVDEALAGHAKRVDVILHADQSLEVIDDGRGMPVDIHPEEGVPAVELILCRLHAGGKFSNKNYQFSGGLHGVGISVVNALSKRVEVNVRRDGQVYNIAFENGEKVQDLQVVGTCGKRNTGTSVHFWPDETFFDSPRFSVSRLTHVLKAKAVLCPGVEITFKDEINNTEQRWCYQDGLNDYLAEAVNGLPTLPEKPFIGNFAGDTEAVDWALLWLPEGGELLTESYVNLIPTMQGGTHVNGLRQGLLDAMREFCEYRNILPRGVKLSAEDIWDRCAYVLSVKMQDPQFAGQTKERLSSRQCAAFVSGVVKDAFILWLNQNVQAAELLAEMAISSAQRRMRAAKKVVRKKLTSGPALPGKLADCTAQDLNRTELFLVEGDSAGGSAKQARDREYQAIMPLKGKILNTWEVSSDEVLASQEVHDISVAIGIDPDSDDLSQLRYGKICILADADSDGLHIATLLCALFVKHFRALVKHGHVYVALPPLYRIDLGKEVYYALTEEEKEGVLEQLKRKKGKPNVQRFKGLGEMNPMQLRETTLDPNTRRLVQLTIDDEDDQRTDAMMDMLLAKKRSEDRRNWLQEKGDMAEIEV
Sequence (P0AFI2 whole entry): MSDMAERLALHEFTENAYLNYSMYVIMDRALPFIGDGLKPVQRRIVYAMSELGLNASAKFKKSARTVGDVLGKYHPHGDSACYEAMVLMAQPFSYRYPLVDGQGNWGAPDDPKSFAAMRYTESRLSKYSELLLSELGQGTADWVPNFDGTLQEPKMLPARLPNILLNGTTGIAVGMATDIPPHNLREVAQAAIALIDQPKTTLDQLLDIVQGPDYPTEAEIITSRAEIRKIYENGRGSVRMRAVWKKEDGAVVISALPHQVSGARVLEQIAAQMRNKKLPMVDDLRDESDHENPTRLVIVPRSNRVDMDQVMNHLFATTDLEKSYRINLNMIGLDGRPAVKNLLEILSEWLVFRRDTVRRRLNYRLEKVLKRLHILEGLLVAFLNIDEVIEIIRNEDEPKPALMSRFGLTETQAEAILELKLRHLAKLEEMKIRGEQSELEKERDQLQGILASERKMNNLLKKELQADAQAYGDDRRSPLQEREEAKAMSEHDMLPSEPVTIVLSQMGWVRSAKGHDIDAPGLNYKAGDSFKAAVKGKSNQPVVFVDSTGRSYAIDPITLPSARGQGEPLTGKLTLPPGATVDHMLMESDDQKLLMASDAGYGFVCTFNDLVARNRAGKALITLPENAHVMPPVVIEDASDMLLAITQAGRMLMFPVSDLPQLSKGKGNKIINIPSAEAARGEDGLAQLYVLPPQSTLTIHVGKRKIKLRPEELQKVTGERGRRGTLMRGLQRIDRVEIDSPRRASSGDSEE
measurementDescription: Topoisomerase IV decatenation assay (E. coli)
Format: biochemical
conditionSummary: E. coli; conc. 50 μM; n/a = not active; read-out: % inhibition Topo IV
Structures can show the parent of a compound that is named as a salt.
Kindly supply the reported inhibition at 50 µM values for the records listed here.
Numbers only, in %.

Consider the reported inhibition at 50 µM for these compounds:
compound	measurementUnits	resultNumber
COc1ccc2ncc(F)c(N3CCC(NCc4cc5c([nH]4)c(=O)oc4ccc(F)cc45)CC3)c2n1	%	37
O=c1cc(NCC(O)CN2CCN(c3nccc4ncccc34)CC2)c2cc(F)ccc2o1 (stereo not shown)	%	90
O=c1cc(NCCCN2CCC(c3nccc4ccccc34)CC2)c2ccccc2o1	%	72
O=c1oc2ccc(F)cc2c2cc(CNC3CCN(c4nccc5ncccc45)CC3)[nH]c12	%	82
O=c1oc2ccccc2c2[nH]c(CCCN3CCN(c4nccc5ccc(F)cc45)CC3)nc12	%	74
O=c1oc2ccccc2c2[nH]c(CNC3CCN(c4nccc5ccc(F)cc45)CC3O)cc12 (stereo not shown)	%	54

Please state, for each entry, its recorded inhibition at 50 µM.
1. O=c1nc(NCC(O)CN2CCN(c3nccc4nccnc34)CC2)c2cc(F)ccc2o1 (stereo not shown)
2. O=c1oc2ccccc2c2[nH]c(CNC3CCN(c4nccc5ccc(F)cc45)CC3)cc12
3. O=c1nc(NCC(O)CN2CCN(c3nc(F)cc4ccc(OC(F)(F)F)cc34)CC2)c2cc(F)ccc2o1 (stereo not shown)
4. NC(=O)C1CN(c2nccc3ccccc23)CCN1CCCNc1cc(=O)oc2ccccc12 (stereo not shown) [Compound 89, hydrochloride]
5. COc1ccc2cc(F)nc(N3CCN(CC(O)CNc4cc(=O)oc5ccc(F)cc45)CC3)c2c1 (stereo not shown)
6. COc1ccc2ncc(C#N)c(N3CCC(NCc4cc5c([nH]4)c(=O)oc4ccc(F)cc45)CC3)c2n1

91
100
0
51
100
100

Dear colleague, could you please provide inhibition at 50 µM for the compounds listed below?
1. O=c1nc(NCC(O)CN2CCN(c3nccc4ccc(F)cc34)CC2)c2cc(F)ccc2o1 (stereo not shown)
2. O=c1cc(NCCNC2CCN(c3nccc4ccc(F)cc34)CC2)c2cc(F)ccc2o1
3. O=c1nc(NCC(O)CN2CCN(c3nccc4ncc(F)cc34)CC2)c2cc(F)ccc2o1 (stereo not shown)
4. O=c1nc(NCC(O)CN2CCN(c3nccc4ncc(C(F)(F)F)cc34)CC2)c2cc(F)ccc2o1 (stereo not shown)

100
100
100
90
